System tested: Polyunsaturated fatty acid 5-lipoxygenase (Rattus norvegicus, UniProt P12527)
Sequence (P12527 whole entry): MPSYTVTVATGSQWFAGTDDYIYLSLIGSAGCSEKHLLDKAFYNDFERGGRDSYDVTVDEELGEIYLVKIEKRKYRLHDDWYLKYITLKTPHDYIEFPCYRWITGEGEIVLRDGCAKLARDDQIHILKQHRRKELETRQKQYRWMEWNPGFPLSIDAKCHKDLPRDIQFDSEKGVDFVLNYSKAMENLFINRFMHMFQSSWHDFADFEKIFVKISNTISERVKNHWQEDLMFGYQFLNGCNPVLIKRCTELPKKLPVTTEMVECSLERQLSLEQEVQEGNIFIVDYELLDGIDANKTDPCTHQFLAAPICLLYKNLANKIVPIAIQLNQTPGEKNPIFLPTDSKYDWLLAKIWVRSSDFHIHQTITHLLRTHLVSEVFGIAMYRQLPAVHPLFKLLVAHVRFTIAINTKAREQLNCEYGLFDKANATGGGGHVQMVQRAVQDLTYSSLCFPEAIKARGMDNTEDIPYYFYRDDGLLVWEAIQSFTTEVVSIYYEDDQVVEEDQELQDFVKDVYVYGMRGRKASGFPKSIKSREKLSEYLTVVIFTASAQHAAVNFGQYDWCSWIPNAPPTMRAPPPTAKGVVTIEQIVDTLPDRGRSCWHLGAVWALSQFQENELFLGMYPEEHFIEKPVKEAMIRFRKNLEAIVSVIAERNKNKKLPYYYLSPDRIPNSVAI
Please respond with fulfilled when measured IC50 is strictly beneath 20 µM, and with not fulfilled in all other cases.

As a guide, the following entries are already answered.
COC(=O)CCCC(=O)Nc1cccc(OCc2ccc3ccccc3c2)c1	fulfilled
COC(=O)CCC(=O)Nc1ccc(OCc2ccc3ccccc3n2)cc1	fulfilled
COC(=O)CCNC(=O)c1cccc(COc2ccc3ccccc3c2)c1	not fulfilled

Does `COC(=O)CCC(=O)Nc1cccc(OCc2ccc3ccccc3n2)c1` have IC50 strictly under 20 µM?
not fulfilled

Does `COC(=O)CCC(=O)Nc1cc(OCc2ccc3ccccc3n2)ccc1C` have IC50 strictly under 20 µM?
fulfilled

Does `COC(=O)CC(=O)Nc1cccc(OCc2ccc3ccccc3n2)c1` have IC50 strictly under 20 µM?
not fulfilled
